# System: A549
# Run Description: relative viability (nuclei count vs DMSO), 5 days (fraction); higher = more cells survive
# Cond: first compound 0.005 µM
Measured Quantity: relative viability

{"Compound": "Nc1ccn([C@@H]2O[C@H](CO)[C@@H](O)[C@@H]2O)c(=O)n1 [Cytarabine] + COc1cc2c(Oc3ccc(NC(=O)C4(C(=O)Nc5ccc(F)cc5)CC4)cc3F)ccnc2cc1OCCCN1CCOCC1 [Foretinib] (partner 0.25 µM)", "Measured Quantity": "relative viability", "Quantitative Readout": 0.622}
{"Compound": "Nc1ccn([C@@H]2O[C@H](CO)[C@@H](O)[C@@H]2O)c(=O)n1 [Cytarabine] + CC1(C)CCC(c2ccc(Cl)cc2)=C(CN2CCN(c3ccc(C(=O)NS(=O)(=O)c4ccc(N[C@H](CCN5CCOCC5)CSc5ccccc5)c(S(=O)(=O)C(F)(F)F)c4)cc3)CC2)C1 [Navitoclax] (partner 0.5 µM)", "Measured Quantity": "relative viability", "Quantitative Readout": 0.969}
{"Compound": "COc1cc2nccc(Oc3ccc(NC(=O)Nc4cc(C)on4)c(Cl)c3)c2cc1OC [Tivozanib] + COc1cc2c(Oc3ccc(NC(=O)C4(C(=O)Nc5ccc(F)cc5)CC4)cc3F)ccnc2cc1OCCCN1CCOCC1 [Foretinib] (partner 0.25 µM)", "Measured Quantity": "relative viability", "Quantitative Readout": 0.804}
{"Compound": "COc1cc2nccc(Oc3ccc(NC(=O)Nc4cc(C)on4)c(Cl)c3)c2cc1OC [Tivozanib] + N=C(N)NC(=N)NCCc1ccccc1 [Phenformin] (partner 250 µM)", "Measured Quantity": "relative viability", "Quantitative Readout": 0.171}
{"Compound": "Nc1ccn([C@@H]2O[C@H](CO)[C@@H](O)[C@@H]2O)c(=O)n1 [Cytarabine] + C[C@@H](Oc1cc(-c2cnn(C3CCNCC3)c2)cnc1N)c1c(Cl)ccc(F)c1Cl [Crizotinib] (partner 1 µM)", "Measured Quantity": "relative viability", "Quantitative Readout": 0.541}

Numbers sourced from the supplement of paper PMC10307832.
